Reference source for all entries: patent US20230203146A1

systemName: FLAG-tagged human Ang2 (human) (UniProt O15123)
Sequence (O15123 19-496): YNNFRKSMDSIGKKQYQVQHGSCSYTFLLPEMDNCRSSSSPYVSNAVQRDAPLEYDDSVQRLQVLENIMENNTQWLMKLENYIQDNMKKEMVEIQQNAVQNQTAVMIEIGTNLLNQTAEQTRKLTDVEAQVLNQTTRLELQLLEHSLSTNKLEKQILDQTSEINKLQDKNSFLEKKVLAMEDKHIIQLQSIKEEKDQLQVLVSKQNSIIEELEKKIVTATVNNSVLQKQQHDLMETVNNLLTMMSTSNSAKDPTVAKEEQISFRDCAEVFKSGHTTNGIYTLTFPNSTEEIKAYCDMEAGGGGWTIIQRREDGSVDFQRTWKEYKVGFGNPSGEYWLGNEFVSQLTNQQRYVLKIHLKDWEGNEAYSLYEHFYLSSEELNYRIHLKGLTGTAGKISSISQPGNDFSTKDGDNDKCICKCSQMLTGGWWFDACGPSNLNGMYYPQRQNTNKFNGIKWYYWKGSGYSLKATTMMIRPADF
assayText: competition ELISA: FLAG-hAng2 binding to coated hTie2-Fc
assayEndpoint: pIC50
# pIC50: negative log10 of molar concentration; output just the value

Known pIC50 results, listed for orientation:
binder	pIC50
VHH 00914 (VHH, not shown: small tags and cut ends) VHH: EVQLVESGGGLVQPGGSLRLSCAASGLTIDDYAIGWFRQAPGKEREGVSSIRDNGGSTYYADSVKGRFTISSDNSKNTVYLQMNSLRPEDTAVYYCAAVPAGRLRYGEQWYPIYEYDAWGQGTLVTVSS	10.43
VHH 00929 (VHH, not shown: small tags and cut ends) VHH: EVQLVESGGGLVQPGGSLRLSCAASGFALDYYAIGWFRQAPGKEREGVSCISSSGGITYYADSVKGRFTISRDNSKNTVYLQMNSLRPEDTAVYYCATESGGYIDYDCQGLGYDYWGQGTLVTVSS	9.82
VHH 00924 (VHH, not shown: small tags and cut ends) VHH: DVQLVESGGGLVQPGGSLRLSCAASGFALDYYAIGWFRQAPGKEREGVSCISSSGGITYYADSVKGRFTISRDNSKNTVYLQMNSLRPEDTAVYYCATDSGGYIDYDCMGLGYDYWGQGTLVTVSS	9.96

Continue with the next binder.
query: Query: pIC50; subject: VHH 00904 (VHH, not shown: small tags and cut ends) VHH: EVQLVESGGGLVQPGGSLRLSCAASGFTLDDYAIGWFRQAPGKEREGVSSIRDNGGSTYYADSVKGRFTISSDNSKNTVYLQMNSLRPEDTAVYYCAAVPAGRLRYGEQWYPIYEYDAWGQGTLVTVSS
result: 10.21
